Test system: 5-HT4 receptor (Rattus norvegicus)
assay.text: Agonistic activity against 5-hydroxytryptamine 4 receptor
property.name: Intrinsic activity
Form field (numeric): enter value without unit.

// known answers, use as guide
CC(C)n1c(=O)n(C(=O)NCCN2CCN(C)CC2)c2ccccc21 = 0.94
CCCN1CCN(CCNC(=O)n2c(=O)n(C(C)C)c3ccccc32)CC1 = 0.68

Continue with the next compound.
Query string: Missing value: Intrinsic activity, 5-HT4 receptor (Rattus norvegicus), entry `CC(C)n1c(=O)n(C(=O)NCCN2CCN(Cc3ccc4c(c3)OCO4)CC2)c2ccccc21` . Fill in?
Result string: 0.3

* * *

Reported values of pKi for individual entries
system.tested: Serotonin 3 (5-HT3) receptor (Rattus norvegicus, UniProt P35563+Q9JJ16)
Sequence (P35563 whole entry): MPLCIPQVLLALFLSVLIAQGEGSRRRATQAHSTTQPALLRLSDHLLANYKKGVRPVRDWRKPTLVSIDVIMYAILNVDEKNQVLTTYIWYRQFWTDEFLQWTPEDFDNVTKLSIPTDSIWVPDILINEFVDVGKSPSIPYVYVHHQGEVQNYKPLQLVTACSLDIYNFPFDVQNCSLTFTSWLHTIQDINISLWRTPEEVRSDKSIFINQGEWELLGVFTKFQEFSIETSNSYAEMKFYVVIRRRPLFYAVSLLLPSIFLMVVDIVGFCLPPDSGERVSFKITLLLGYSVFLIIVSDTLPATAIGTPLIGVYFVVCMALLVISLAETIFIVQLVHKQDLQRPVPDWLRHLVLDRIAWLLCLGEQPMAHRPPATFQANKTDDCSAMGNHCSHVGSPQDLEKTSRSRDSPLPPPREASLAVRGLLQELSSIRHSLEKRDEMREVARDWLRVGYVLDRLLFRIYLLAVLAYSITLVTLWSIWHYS
Sequence (Q9JJ16 whole entry): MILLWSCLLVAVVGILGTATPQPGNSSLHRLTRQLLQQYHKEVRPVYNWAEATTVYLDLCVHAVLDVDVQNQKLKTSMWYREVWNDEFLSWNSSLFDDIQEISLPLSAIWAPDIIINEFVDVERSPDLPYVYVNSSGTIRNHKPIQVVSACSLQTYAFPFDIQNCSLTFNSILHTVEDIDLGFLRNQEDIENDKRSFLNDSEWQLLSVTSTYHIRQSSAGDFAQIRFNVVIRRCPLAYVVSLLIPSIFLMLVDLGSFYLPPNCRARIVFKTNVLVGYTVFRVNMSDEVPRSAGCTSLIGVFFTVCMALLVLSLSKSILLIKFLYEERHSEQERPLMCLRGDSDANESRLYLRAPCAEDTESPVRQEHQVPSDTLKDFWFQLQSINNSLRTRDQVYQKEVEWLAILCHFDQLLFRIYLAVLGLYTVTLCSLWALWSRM
assay.text: Inhibitory concentration against 5-hydroxytryptamine 3 receptor in rat entorhinal cortex using [3H]-LY 278584 as radioligand
In textbook form, pKi equals minus log to base ten of the concentration in mol/L.

// known answers, use as guide
CC(C)n1c(=O)n(C(=O)NN2CCN(C)CC2)c2ccccc21 = 6.70
CC(C)n1c(=O)n(C(=O)NCN2CCN(C)CC2)c2ccccc21 = 6.51

Continue with the next compound.
Query string: Need pKi of CC(C)n1c(=O)n(C(=O)NC2CC3CCC(C2)N3C)c2ccccc21 (stereo not drawn) , thanks.
Result string: 9.30

* * *

Reported values of pKb for individual entries
Test system: 5-HT4 receptor (Rattus norvegicus)
assay.text: Antagonistic activity against 5-hydroxytryptamine 4 receptor

// known answers, use as guide
CC(C)n1c(=O)n(C(=O)NCCCN2CCN(C)CC2)c2ccccc21 = < 6
CCCCN1CCN(CCNC(=O)n2c(=O)n(CC)c3ccccc32)CC1 = 7.73
CN1CCN(CNC(=O)n2c(=O)n(C3CC3)c3ccccc32)CC1 = 6.19

Query string: Need pKb of `CCn1c(=O)n(C(=O)NCCN2CCN(C)CC2)c2ccccc21` , thanks.
Result string: 6.79

Query string: Need pKb of `CC(C)n1c(=O)n(C(=O)NCCN2CCN(C)CC2)c2cc(Cl)ccc21` , thanks.
Result string: < 6

Query string: Need pKb of `CN1CCN(CCNC(=O)n2c(=O)n(Cc3ccccc3)c3ccccc32)CC1` , thanks.
Result string: < 6

Query string: Need pKb of `CCN1CCN(CCNC(=O)n2c(=O)n(C(C)C)c3ccccc32)CC1` , thanks.
Result string: 6.62

Query string: Need pKb of `CCCN1CCN(CCNC(=O)n2c(=O)n(C3CC3)c3ccccc32)CC1` , thanks.
Result string: 7.46

Query string: Need pKb of `CCCN1CCN(CCNC(=O)n2c(=O)n(C(C)C)c3ccccc32)CC1` , thanks.
Result string: 6.89

Query string: Need pKb of `CC(C)n1c(=O)n(C(=O)NN2CCN(C)CC2)c2ccccc21` , thanks.
Result string: < 6

Query string: Need pKb of `CC(C)n1c(=O)n(C(=O)NCCN2CCN(Cc3ccc4c(c3)OCO4)CC2)c2ccccc21` , thanks.
Result string: < 6

Query string: Need pKb of `C=CC[N+]1(C)CCN(CCNC(=O)n2c(=O)n(C(C)C)c3ccccc32)CC1` , thanks.
Result string: 6.28

Query string: Need pKb of `CC(C)n1c(=O)n(C(=O)NCCN2CCN(C)CC2)c2cc(F)ccc21` , thanks.
Result string: 6.88
